Numbers sourced from patent US20230167118A1.

# Study System: BTK (Homo sapiens)
# Construct: High control=Cell group with added DMSO and without compound, indicating microplate readings without BTK degradation; endogenous in cells; host or cells: TMD-8 cells
# Test Summary: Cell Degradation: BTK degradation in TMD-8 cells, HTRF assay
# Assay type: cell-based
# Condition Set: 6 h treatment, IC50 (DC50) of BTK degradation

Compound	Readout Units	DC50
Cc1cc(N2CCC(CN3CCN(c4ccc(-c5cc6c(-c7ccc([C@@H](C)NC(=O)c8noc(C(C)(C)C)n8)c(C)c7F)ncnc6[nH]5)nc4)CC3)CC2)ccc1N1CCC(=O)NC1=O	nM	0.47
Cc1cc(-c2ncnc3[nH]c(-c4c(C)nn(C5CCN(CC6CCN(c7ccc(N8CCC(=O)NC8=O)cc7)CC6)CC5)c4C)cc23)ccc1[C@@H](C)NC(=O)c1nc(C(C)(C)C)no1	nM	0.48
COc1cc(-c2nc3c(-c4ccc([C@@H](C)NC(=O)c5nc(C(C)(C)C)no5)c(C)c4)ncnc3[nH]2)ccc1N1CCN(CC2CCN(c3ccc(N4CCC(=O)NC4=O)c(C)c3)CC2)CC1	nM	0.97
Cc1cc(-c2ncnc3[nH]c(-c4ccc(N5CCN(CC6CCN(c7ccc(N8CCC(=O)NC8=O)cc7)CC6)CC5)cc4)cc23)ccc1[C@@H](C)NC(=O)c1noc(C2(C)CC2)n1	nM	1.5
Cc1cc(-c2ncnc3[nH]c(-c4ccc(C5CCN(CC6CCN(c7ccc8c(c7)CN(C7CCC(=O)NC7=O)C8=O)CC6)CC5)cc4)cc23)ccc1CNC(=O)c1nc(C(C)(C)C)no1 (centres unmarked)	nM	3.2

====

Collected DC50 values appear next to each entry.
# Study System: BTK (Homo sapiens, UniProt Q06187)
# Construct: High control=Cell group with added DMSO and without compound, indicating microplate readings without BTK degradation; endogenous in cells; host or cells: TMD-8 cells
# Sequence (Q06187 whole entry): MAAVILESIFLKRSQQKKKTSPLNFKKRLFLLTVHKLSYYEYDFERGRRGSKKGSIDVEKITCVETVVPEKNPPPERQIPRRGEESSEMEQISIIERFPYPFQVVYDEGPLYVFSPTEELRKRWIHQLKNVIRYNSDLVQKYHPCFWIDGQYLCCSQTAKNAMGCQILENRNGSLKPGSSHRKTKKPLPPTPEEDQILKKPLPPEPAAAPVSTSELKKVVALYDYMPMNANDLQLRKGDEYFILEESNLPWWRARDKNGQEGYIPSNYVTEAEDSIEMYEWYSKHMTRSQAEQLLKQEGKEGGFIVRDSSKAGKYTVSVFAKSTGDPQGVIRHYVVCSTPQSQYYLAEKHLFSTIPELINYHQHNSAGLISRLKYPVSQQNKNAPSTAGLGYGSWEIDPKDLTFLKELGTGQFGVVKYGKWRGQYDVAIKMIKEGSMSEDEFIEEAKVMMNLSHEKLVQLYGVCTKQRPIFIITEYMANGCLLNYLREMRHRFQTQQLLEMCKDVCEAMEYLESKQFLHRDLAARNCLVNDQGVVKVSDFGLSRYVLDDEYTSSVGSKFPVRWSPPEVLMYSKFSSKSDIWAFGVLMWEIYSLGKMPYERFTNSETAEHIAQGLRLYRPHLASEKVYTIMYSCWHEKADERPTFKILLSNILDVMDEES
# Test Summary: Cell Degradation: BTK degradation in TMD-8 cells, HTRF assay
# Assay type: cell-based
# Condition Set: 6 h treatment, IC50 (DC50) of BTK degradation

Compound	Study System	DC50
Cc1cc(-c2ncnc3[nH]c(-c4ccc(C5CCN(CCC6CCN(c7ccc(N8CCC(=O)NC8=O)c(F)c7)CC6)CC5)cc4)cc23)ccc1CNC(=O)c1nc(C(C)(C)C)no1 [Example 15]	BTK (Homo sapiens, UniProt Q06187)	1 nM
Cc1cc(-c2ncnc3[nH]c(-c4ccc(N5CCN(CC6CCN(c7ccc(N8CCC(=O)NC8=O)cc7)CC6)CC5)nc4)c(F)c23)ccc1[C@@H](C)NC(=O)c1nc(C(C)(C)C)no1 [Example 142]	BTK (Homo sapiens, UniProt Q06187)	2.99 nM
Cc1cc(-c2ncnc3[nH]c(-c4ccc(N5CCN(Cc6ccc(C7CCC(=O)NC7=O)c(F)c6)CC5)cn4)cc23)ccc1[C@@H](C)NC(=O)c1nc(C(C)(C)C)no1 (some centres unmarked) [Example 181]	BTK (Homo sapiens, UniProt Q06187)	1.58 nM
Cc1cc(-c2ncnc3[nH]c(-n4nc(C)c(C5CCN(CC6CCN(c7ccc(N8CCC(=O)NC8=O)cc7)CC6)CC5)c4C)cc23)ccc1[C@@H](C)NC(=O)c1nc(C(C)(C)C)no1 [Example 152]	BTK (Homo sapiens, UniProt Q06187)	> 2000 nM
Cc1cc(-c2ncnc3[nH]c(-c4ccc(N5CCN(CC6CCN(c7ccc(N8CCC(=O)NC8=O)cc7)CC6)CC5)cc4)cc23)ccc1CNC(=O)c1noc(C2(C(F)(F)F)CC2)n1 [Example 51]	BTK (Homo sapiens, UniProt Q06187)	0.38 nM

====

Collected DC50 values appear next to each entry.
# Study System: BTK (Homo sapiens, UniProt Q06187)
# Construct: High control=Cell group with added DMSO and without compound, indicating microplate readings without BTK degradation; endogenous in cells; host or cells: TMD-8 cells
# Test Summary: Cell Degradation: BTK degradation in TMD-8 cells, HTRF assay
# Type: cell-based
# Condition Set: 6 h treatment, IC50 (DC50) of BTK degradation
Property Label: DC50 (nM)

Compound	Study System	Quantitative Readout
C[C@@H](NC(=O)c1nc(C(C)(C)C)no1)c1ccc(-c2ncnc3[nH]c(-c4ccc(N5CCN(CC6CCN(c7ccc(N8CCC(=O)NC8=O)cc7)CC6)CC5)nc4)cc23)cc1F	BTK (Homo sapiens, UniProt Q06187)	1.7
Cc1cc(-c2ncnc3[nH]c(-c4ccc(N5CCN(CC6CCN(c7ccc(C8CCC(=O)NC8=O)cc7)CC6)CC5)nc4)cc23)ccc1[C@@H](C)NC(=O)c1nc(C(C)(C)C)no1 (stereo partly shown)	BTK (Homo sapiens, UniProt Q06187)	1.7
Cc1cc(-c2ncnc3[nH]c(-c4ccc(C5CCN(CC6CCN(c7ccc(N8CCC(=O)NC8=O)cc7)CC6)C5)cc4)cc23)ccc1[C@@H](C)NC(=O)c1nc(C(C)(C)C)no1 (stereo partly shown)	BTK (Homo sapiens, UniProt Q06187)	1.12
Cc1cc(-c2ncnc3[nH]c(-c4ccc(N5CCN(CC6CCN(c7ccc(N8CCC(=O)NC8=O)c(C)c7)CC6)CC5)cn4)cc23)ccc1[C@@H](C)NC(=O)c1noc(C2(CO)CC2)n1	BTK (Homo sapiens, UniProt Q06187)	0.16
Cc1cc(-c2ncnc3[nH]c(-c4ccc(N5CCN(CC6CCN(c7ccc(-n8ccc(=O)[nH]c8=O)cc7)CC6)CC5)nc4)cc23)ccc1[C@@H](C)NC(=O)c1nc(C(C)(C)C)no1	BTK (Homo sapiens, UniProt Q06187)	2.65
Cc1cc(-c2ncnc3[nH]c(-c4ccc(C5(O)CN(CC6CCN(c7ccc(N8CCC(=O)NC8=O)cc7)CC6)C5)cn4)cc23)ccc1[C@@H](C)NC(=O)c1nc(C(C)(C)C)no1	BTK (Homo sapiens, UniProt Q06187)	0.24
Cc1cc(-c2ncnc3[nH]c(-c4ccc(N5CCN(CC6CCN(c7ccc(N8CCC(=O)NC8=O)cc7)CC6)CC5)cc4)cc23)ccc1CNC(=O)c1nc(C(C)(C)C)no1	BTK (Homo sapiens, UniProt Q06187)	1.7
Cc1cc(-c2ncnc3[nH]c(-c4ccc(N5CCN([C@H]6C[C@@H](c7ccc(O[C@H]8CCC(=O)NC8=O)cc7)C6)CC5)nc4)cc23)ccc1[C@@H](C)NC(=O)c1nc(C(C)(C)C)no1	BTK (Homo sapiens, UniProt Q06187)	1.59
C[C@@H](NC(=O)c1noc(C(C)(C)C)n1)c1ccc(-c2ncnc3[nH]c(-c4ccc(N5CCN(CC6CCN(c7ccc(N8CCC(=O)NC8=O)cc7)CC6)CC5)nc4)cc23)cc1CO	BTK (Homo sapiens, UniProt Q06187)	0.26
COc1cc(N2CCC(CN3CCN(c4ccc(-c5cc6c(-c7ccc([C@@H](C)NC(=O)c8nc(C(C)(C)C)no8)c(C)c7)ncnc6[nH]5)cc4)CC3)CC2)ccc1N1CCC(=O)NC1=O	BTK (Homo sapiens, UniProt Q06187)	1.8

====

Collected DC50 values appear next to each entry.
# Study System: BTK (Homo sapiens)
# Construct: High control=Cell group with added DMSO and without compound, indicating microplate readings without BTK degradation; endogenous in cells; host or cells: TMD-8 cells
# Test Summary: Cell Degradation: BTK degradation in TMD-8 cells, HTRF assay
# Assay type: cell-based
# Condition Set: 6 h treatment, IC50 (DC50) of BTK degradation
Where a name gives a salt, the structure may show the parent alone.

Compound	Study System	Readout Units	Value Prefix	DC50
C[C@@H](NC(=O)c1nc(C(C)(C)C)no1)c1ccc(-c2ncnc3[nH]c(-c4ccc(N5CCN(CC6CCN(c7ccc(N8CCC(=O)NC8=O)cc7)CC6)CC5)cc4)cc23)cc1F	BTK (Homo sapiens)	nM	=	1.7
Cc1cc(-c2ncnc3[nH]c(-c4ccc(N5CCN(CC6CCN(c7ccc(N8CCC(=O)NC8=O)cc7)CC6)CC5)c(F)c4)cc23)ccc1[C@@H](C)NC(=O)c1nc(C(C)(C)C)no1 [Example 38, Formate]	BTK (Homo sapiens)	nM	=	2.1
Cc1cc(-c2ncnc3[nH]c(-c4ccc(N5CCN(CC6CCN(c7ccc(N8CCC(=O)N(C)C8=O)cc7)CC6)CC5)nc4)cc23)ccc1[C@@H](C)NC(=O)c1nc(C(C)(C)C)no1	BTK (Homo sapiens)	nM	>	2000
Cc1cc(-c2ncnc3[nH]c(-c4ccc(N5CC6(CN(CC7CCN(c8ccc(N9CCC(=O)NC9=O)cc8)CC7)C6)C5)cc4)cc23)ccc1[C@@H](C)NC(=O)c1nc(C(C)(C)C)no1	BTK (Homo sapiens)	nM	=	1.26
Cc1cc(-c2ncnc3[nH]c(-c4ccc(C5CCN(CCC6CCN(c7ccc(N8CCC(=O)NC8=O)cc7)CC6)CC5)cc4)cc23)ccc1CNC(=O)c1nc(C(C)(C)C)no1	BTK (Homo sapiens)	nM	=	3.8

====

Collected DC50 values appear next to each entry.
# Study System: BTK (Homo sapiens, UniProt Q06187)
# Construct: High control=Cell group with added DMSO and without compound, indicating microplate readings without BTK degradation; endogenous in cells; host or cells: TMD-8 cells
# Test Summary: Cell Degradation: BTK degradation in TMD-8 cells, HTRF assay
# Type: cell-based
# Condition Set: 6 h treatment, IC50 (DC50) of BTK degradation

Molecule	Study System	DC50 [nM]
Cc1cc(-c2ncnc3[nH]c(-c4ccc(C5CCN(CCC6CCN(c7ccc(C8CCC(=O)NC8=O)cc7)CC6)CC5)cc4)cc23)ccc1CNC(=O)c1nc(C(C)(C)C)no1 (stereo not drawn) [Example 4]	BTK (Homo sapiens, UniProt Q06187)	2.3
Cc1cc(-c2ncnc3[nH]c(-c4ccc(N5CCN(CC6CCN(c7ccc(N8CCC(=O)NC8=O)cc7)CC6)CC5)cn4)cc23)ccc1[C@@H](C)NC(=O)c1nc(C2(C)CC2)no1 [Example 165]	BTK (Homo sapiens, UniProt Q06187)	0.69
Cc1cc(-c2ncnc3[nH]c(-c4ccc(N5CCN(CC6CCN(c7ccc(N8CCC(=O)NC8=O)c(C)c7)CC6)CC5)cc4)cc23)ccc1[C@@H](C)NC(=O)c1nc(C(C)(C)C)no1 [Example 44]	BTK (Homo sapiens, UniProt Q06187)	1.2
